Kindly state protein stability index for each of the entries shown.
Test: protein stability index of a GFP-peptide fusion (yeast GPS) (PSI 1-4); higher = more stable; sorted into four equal gates, so the index is relative within each strain
Settings: doa10∆

VDIQIINQYQLLYNLKN [SWI1] yielded protein stability index of 1.68

MMMQQQLKNVQLDSYLV [MED2] yielded protein stability index of 2.21

WKEVLAHNPELERYVKR [RPO31] yielded protein stability index of 3.6

IFAGAFVFQTVFDTAIT [QCR9] yielded protein stability index of 1.61

DPSRELNVIIDQLAVSP [YCS4] yielded protein stability index of 2.79

KAVKLRKSYKNQIADLS [ROX3] yielded protein stability index of 2.74

TDGELDIEFINSLLTIV [RPC34] yielded protein stability index of 2.78

HEEDQKTNIIEKAMDYA [RPN12] yielded protein stability index of 2.52

GRYMEALALYVDAYRRL [SRP68] yielded protein stability index of 1.84

GIDPDETVPDNVKTSVS [RPO31] yielded protein stability index of 2.83

GDIVRMLETAGFSMNNP [SMC3] yielded protein stability index of 3.08

KTSNIESVPIYSIDEFF [BRR2] yielded protein stability index of 2.56

KVISNPLLARKQFVVDV [RPS24A] yielded protein stability index of 1.95

NPMKKHKPNEGRTPNIS [SIR4] yielded protein stability index of 2.88

EDFMDIPKPRTAGKTSV [SNF2] yielded protein stability index of 2.67

----------
Test: protein stability index of a GFP-peptide fusion (yeast GPS) (PSI 1-4); higher = more stable; sorted into four equal gates, so the index is relative within each strain
Conditions: doa10∆
Kindly state protein stability index for each of the entries shown.
Format: numeric value only, no unit, no commentary.

INKMVGNRYLEKRLNLR [RPL21A] yielded protein stability index of 2.65

KHHQLFYMLNAGIRPKF [RPN1] yielded protein stability index of 2.23

AIKKSSMKMELLKKELL [SMC2] yielded protein stability index of 2.89

SGNLPLNELSAKDKEIY [RPN13] yielded protein stability index of 3.21

LQAFGESESTTNVYSKD [RPB3] yielded protein stability index of 2.08

PHLIIQNHNSKSTDNSA [IRR1] yielded protein stability index of 2.71

KEELLRDGVLTVTLNKN [RRP45] yielded protein stability index of 1.78

KLLGVDMQSSVDTGLQP [YLR018C/POM34] yielded protein stability index of 3.17

GDLKLQVLLDEEYKQLV [RPO21] yielded protein stability index of 2.48

VSGDAAALFRLHKFLTK [SWI3] yielded protein stability index of 2.92

NVLNRIQELEDQRDELL [ITC1] yielded protein stability index of 3.39

KTNEESAKMILLSDPTI [PRP8] yielded protein stability index of 2.77

KAELEKQKSWVPSYIHV [YIL149C/MLP2] yielded protein stability index of 2.09

PSTRSNFILEVFGTIIP [YJL039C/NUP192] yielded protein stability index of 1.35

----------
Assay: protein stability index of a GFP-peptide fusion (yeast GPS) (PSI 1-4); higher = more stable; sorted into four equal gates, so the index is relative within each strain
Details: pdr5∆
Attribute Measured: protein stability index
Format: numeric value only, no unit, no commentary.

FKKDLVIVLSNISHLLE [SWI1] yielded protein stability index of 1.63

AIKKSSMKMELLKKELL [SMC2] yielded protein stability index of 2.19

SEGISEATREVFGISKT [ITC1] yielded protein stability index of 3.42

DKVTSQAVNNLIKTLST [RPP1] yielded protein stability index of 2.89

KYLPHAILKLLENMPHP [PRP8] yielded protein stability index of 1.46

DGGYNAQLAKAKTELNE [SMC2] yielded protein stability index of 1.94

LIGRPPLLVPGMTPCTV [FAS1] yielded protein stability index of 1.82

ADIENSTSGDPSEFHCL [SSN2] yielded protein stability index of 3.31

NPKYDTSNASMNTTLGS [YAR002W/NUP60] yielded protein stability index of 3.15

RAYMRPLGVILTFVSVD [SCL1] yielded protein stability index of 1.81

SRGNGGKKVLNKNQLLK [POP1] yielded protein stability index of 2.54

LGYPPISLVDDIINAVN [MTW1] yielded protein stability index of 2.14

RGYTCQFVDMVLPNTAL [FAS1] yielded protein stability index of 1.88

SNKSNSTNESNKSISDE [SSN2] yielded protein stability index of 3.05

TTIDSLNAELESKLIPQ [SMC3] yielded protein stability index of 3.03

TFDGIRMSSEEVNSLLL [GRR1] yielded protein stability index of 3.04

VASADYESQTFSSKNEW [PRP8] yielded protein stability index of 3.4

TKENLEVSGENVVEADL [QCR2] yielded protein stability index of 3.6

NVTMIDDLIHFTLKQWN [COR1] yielded protein stability index of 2.89

KDLKEILSGFHNAGPVA [RPP1B] yielded protein stability index of 2.75

QKIRNSEGISEATREVF [ITC1] yielded protein stability index of 3.47

AELFNNDIKLFVDDTNV [PRP8] yielded protein stability index of 2.09

APKWYPSEDVAALKKTR [RPL6A] yielded protein stability index of 2.97

HLIFSNARIYNTEGSVV [SNF2] yielded protein stability index of 3.39

TLTKISMLFKTSQKMTS [MCD1] yielded protein stability index of 2.83

EQTVEYMVSRAIRDGVI [RPN3] yielded protein stability index of 3.58

GLGMISASHILIPASDL [PRP8] yielded protein stability index of 2.41

STVIEEFTLFMDIAERI [YGL172W/NUP49] yielded protein stability index of 2.71

VNGRTKSNTIPVTSIPS [GAL11] yielded protein stability index of 2.87

FSKGDADVLVDRVVSSD [SRP72] yielded protein stability index of 3.2

GGESAYFFQLQIRSADE [RPC11] yielded protein stability index of 2.88

DASTPLRSTENGIVDQV [RPB2] yielded protein stability index of 3.33

QKLFVQVSNFAPQVYII [GAL11] yielded protein stability index of 2.45

IQYVTYLLTQQQIWKSP [SOH1] yielded protein stability index of 2.07

APSDFSENQRQIFCVFS [GRR1] yielded protein stability index of 2.58

IAACTGVPDDKWEQTYK [FAS1] yielded protein stability index of 1.21

TYIKSEITQQEKGLNEL [SMC4] yielded protein stability index of 1.7

GRQFCNRLSRIHLYMLT [YLR018C/POM34] yielded protein stability index of 1.87

RFMKGRRSKQLINLAKT [RPC82] yielded protein stability index of 2.78

IHNYDSKKSTITVRYWL [RGR1] yielded protein stability index of 2.88

SVPTNSADAPNPNNVNV [RET1] yielded protein stability index of 3.14

VHPRKSYKMNSSAADIT [PRP8] yielded protein stability index of 2.88

KMWFDVQLRYGDYDSHD [PRP8] yielded protein stability index of 2.06

FPRSRSRSRSSIRSISP [ESC2] yielded protein stability index of 3.18

FDGFLFGSRVMIAKEVK [FAS1] yielded protein stability index of 1.56

YISLLKLQGLYENIPIY [YDL116W/NUP84] yielded protein stability index of 1.42

STLHMLGYTHIAINFTV [RPP1] yielded protein stability index of 1.39

GNLIGVDPFDSDEEESV [SNU114] yielded protein stability index of 3.14

KLLGVDMQSSVDTGLQP [YLR018C/POM34] yielded protein stability index of 3.12

VLRINKMLSCAGADRLQ [RPL10] yielded protein stability index of 1.28

PGNRNADNVDKILEQFE [FAS2] yielded protein stability index of 1.53

LAHYVVTAKLLGFTPGE [FAS1] yielded protein stability index of 1.28

APDGSASISLPNHIPSV [SWP82] yielded protein stability index of 2.54

PLQGIFHNAVFNSFRRF [QCR8] yielded protein stability index of 2.47

LSLHENYPQDEINAVFN [POP1] yielded protein stability index of 3.11

GSNGELFGGRHYLFNTF [SWP82] yielded protein stability index of 2.97

NTHWGLVCPAETPEGQA [RPB2] yielded protein stability index of 1.49

MLCTADTPEGEACGLVK [RET1] yielded protein stability index of 1.77

HGSIIILGMLSLADNEI [YCS4] yielded protein stability index of 2.04

ISKSLTFSQESGLMVIL [RRI2] yielded protein stability index of 2.33

IFCIDLEVFHHFFKWIE [SRB8] yielded protein stability index of 1.64

----------
Kindly state protein stability index for each of the entries shown.
Experiment: protein stability index of a GFP-peptide fusion (yeast GPS) (PSI 1-4); higher = more stable; sorted into four equal gates, so the index is relative within each strain
Settings: pdr5∆
Format: numeric value only, no unit, no commentary.

DLTRVYKAISAQADKQD [FAS2] yielded protein stability index of 1.72

NVVPYHRNTSDYYYEDA [SWI1] yielded protein stability index of 3.13

LDVSSDRRKARKAYFTA [RPL26A] yielded protein stability index of 1.26

MFKLGNFESPVLKELSR [YLR018C/POM34] yielded protein stability index of 3.37

SGDKEATAPLIQRKNKK [RPN8] yielded protein stability index of 3.35

VEMAWIMGFISYHNGNL [FAS2] yielded protein stability index of 3.2

KVFSLDPQYLVDDLRPE [ASC1] yielded protein stability index of 2.84

MKPEVEQELAHILLTEL [FAS2] yielded protein stability index of 2.99

QFIKSNFEKILLTCYEL [SRB8] yielded protein stability index of 3

ENNTDSARKELEQKIHE [SMC1] yielded protein stability index of 2

DMVKLDINPPLVFILAV [RRP42] yielded protein stability index of 2.3

QRRVLLSAPLSKELRAQ [RPL26A] yielded protein stability index of 2.43

DAAEEEKEEEAKEESDD [RPP2B] yielded protein stability index of 3.22

SVVRGNTFKVLSKFFFF [COB] yielded protein stability index of 2.2

VNSYRLNPNEYFSVTTA [SWI3] yielded protein stability index of 2.84

KDGEDIIFNYVPGPGTK [CSL4] yielded protein stability index of 2.53

IKELEHLHDAVFVNTGL [SWP82] yielded protein stability index of 2.9

LSTLRMEADPSLHPLFE [RPN9] yielded protein stability index of 2.33

LEVANDLQLLYVESDED [IRR1] yielded protein stability index of 1.21

MNKDQAEKYQERSLRQK [SNM1] yielded protein stability index of 3.25

ISPKGGRRISENGQRDL [RPS19A] yielded protein stability index of 2.81

VDNDNWVYKTKGDGMTS [RPN1] yielded protein stability index of 3.27

VQDRGLSAVAQAESMKF [RPS3] yielded protein stability index of 3.16

DQYIQKQVQISHHLKAD [YGL172W/NUP49] yielded protein stability index of 2.71

GLRVRGQHTKTTGRRRA [RPS18A] yielded protein stability index of 2.33

RNRDIALFQPPNFDWDL [ROX3] yielded protein stability index of 3.33

NTSAQHVESDKITAKTQ [IRR1] yielded protein stability index of 2.99

PALLRPGRLDRKIEFPS [RPT3] yielded protein stability index of 3.08

SDERAKLELINRYAYVL [LRP1] yielded protein stability index of 3.17

ESGKVFIGRLPIMLRSK [RPB2] yielded protein stability index of 2.67

FQALDSEETQFKYVEDR [ITC1] yielded protein stability index of 3.44

KIRRHPNIMLIFGSGFG [FAS1] yielded protein stability index of 2.07

IRGILMASGSTTFTKVA [PRP8] yielded protein stability index of 2.02

LKPKLYYEQFRPDLIKE [SIR3] yielded protein stability index of 3.15

NVLNRIQELEDQRDELL [ITC1] yielded protein stability index of 3.15

LEQQKQPTGLLKGLNGF [YMR153W/NUP53] yielded protein stability index of 3.46

DVLKVNTLVRPNGTKKA [RPL25] yielded protein stability index of 2.91

NEIKQLGSDSSDGHNSE [SRB4] yielded protein stability index of 2.8

SHLYKARLDGHDFLFNT [RPN14] yielded protein stability index of 2.88

STTNSDVSLLLQRDLFI [RGR1] yielded protein stability index of 3.06

EGSKSHPFGHALVAGIE [RPL27A] yielded protein stability index of 2.83

QREEAKKVVKKAFEERH [RPL27A] yielded protein stability index of 3.78

ELISYRNESLKNNSSIR [SRB8] yielded protein stability index of 3.05

HIMEPCIECQPKAMTDT [HRT1] yielded protein stability index of 3.25

NDLEVGVATKDKFFTLS [SCL1] yielded protein stability index of 3.33

SQLQEQFNKILPEPTEG [FAS1] yielded protein stability index of 3.17

LLRPSSKVIIKFLQVMQ [RPS22B] yielded protein stability index of 1.61

RPDLIKEDHPLEFYKDK [SIR3] yielded protein stability index of 3.23

CLLSIPKSTKGKILTIK [YML103C/NUP188] yielded protein stability index of 1.87

PTRYVLIRNVGTNTYRL [POP1] yielded protein stability index of 1.32

ITDKTIESIVNLAPKLR [GRR1] yielded protein stability index of 2.27

AETLCFTVNVLYPDSSS [RPN3] yielded protein stability index of 2.69

VRDTSPHGISVFLSNLV [BRR2] yielded protein stability index of 1.54

FIDSICKLFDKISFNLR [SRB8] yielded protein stability index of 2.23

HKPNEGRTPNISNGTIN [SIR4] yielded protein stability index of 2.9

LLGIFDDIFIPQNMLFE [RPC25] yielded protein stability index of 2.7

RQLTSLGSKKELGISLE [SNU114] yielded protein stability index of 3.17

IEWCSRCNDNLMRSCFY [YJL039C/NUP192] yielded protein stability index of 2.68

LVEEKTPGLTFNAIDLA [RPC82] yielded protein stability index of 3.29

MLASQANGGSTIISPHK [DSN1] yielded protein stability index of 3.43
